TESTED ON: T1, IL-36R naturally expressed on OVCAR8 cells and on normal human epidermal keratinocytes (NHK cells) (human, UniProt Q9HB29 20-575)
T1 sequence (looked up): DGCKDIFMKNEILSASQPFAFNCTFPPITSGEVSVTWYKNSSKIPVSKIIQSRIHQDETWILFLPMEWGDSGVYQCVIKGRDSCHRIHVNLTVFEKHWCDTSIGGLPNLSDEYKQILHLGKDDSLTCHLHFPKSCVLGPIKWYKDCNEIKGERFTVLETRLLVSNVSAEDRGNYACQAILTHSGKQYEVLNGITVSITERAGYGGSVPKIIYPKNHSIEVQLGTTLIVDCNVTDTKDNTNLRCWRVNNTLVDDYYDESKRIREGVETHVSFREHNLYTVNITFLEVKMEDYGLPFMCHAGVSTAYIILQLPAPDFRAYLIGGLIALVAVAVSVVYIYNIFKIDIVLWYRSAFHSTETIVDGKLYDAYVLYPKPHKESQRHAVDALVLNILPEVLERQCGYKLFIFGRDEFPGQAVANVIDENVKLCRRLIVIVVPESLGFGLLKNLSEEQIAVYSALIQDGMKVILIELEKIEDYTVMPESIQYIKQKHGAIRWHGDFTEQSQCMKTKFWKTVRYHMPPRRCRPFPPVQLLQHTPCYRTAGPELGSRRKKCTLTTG
PROTOCOL TEXT: cell-based or functional assay
METRIC: Maximum inhibition rate %; hIL36β; IL-8 production (%)
Could you give me the number in %? Just the number is fine.

Below, 5 binders whose answers are already recorded.
BINDER: hz84C4-1.5 (antibody, human IgG4 S228P, kappa, V domains shown, Humanized, human IgG4 / kappa) VH: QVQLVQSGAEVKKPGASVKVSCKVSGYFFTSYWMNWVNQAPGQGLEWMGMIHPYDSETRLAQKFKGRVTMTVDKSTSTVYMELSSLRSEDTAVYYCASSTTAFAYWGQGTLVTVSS VL: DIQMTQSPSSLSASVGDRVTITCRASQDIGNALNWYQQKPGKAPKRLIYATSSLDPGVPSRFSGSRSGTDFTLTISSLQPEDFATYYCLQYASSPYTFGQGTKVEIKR
READING UNIT: %
OBSERVED RESULT: 101
//
BINDER: hz84C4-2.4 (antibody, human IgG4 S228P, kappa, V domains shown, Humanized, human IgG4 / kappa) VH: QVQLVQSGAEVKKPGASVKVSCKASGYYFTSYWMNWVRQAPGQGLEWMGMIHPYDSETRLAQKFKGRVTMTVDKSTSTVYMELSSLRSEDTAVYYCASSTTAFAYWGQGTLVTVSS VL: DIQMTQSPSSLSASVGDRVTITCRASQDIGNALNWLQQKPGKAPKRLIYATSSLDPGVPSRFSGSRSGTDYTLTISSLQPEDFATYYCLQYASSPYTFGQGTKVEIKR
READING UNIT: %
OBSERVED RESULT: 92.7
//
BINDER: hz84C4-2.2 (antibody, human IgG4 S228P, kappa, V domains shown, Humanized, human IgG4 / kappa) VH: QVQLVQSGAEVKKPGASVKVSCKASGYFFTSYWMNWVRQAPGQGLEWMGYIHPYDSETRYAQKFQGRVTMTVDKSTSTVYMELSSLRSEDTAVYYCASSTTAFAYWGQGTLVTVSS VL: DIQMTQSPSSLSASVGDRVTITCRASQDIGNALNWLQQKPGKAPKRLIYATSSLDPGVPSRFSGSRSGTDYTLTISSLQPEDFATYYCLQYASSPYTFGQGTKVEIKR
READING UNIT: %
OBSERVED RESULT: 95.8
//
BINDER: hz84C4-1.1 (antibody, human IgG4 S228P, kappa, V domains shown, Humanized, human IgG4 / kappa) VH: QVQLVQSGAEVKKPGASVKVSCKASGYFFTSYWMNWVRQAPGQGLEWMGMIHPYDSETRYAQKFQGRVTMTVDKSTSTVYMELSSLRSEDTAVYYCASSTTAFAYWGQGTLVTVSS VL: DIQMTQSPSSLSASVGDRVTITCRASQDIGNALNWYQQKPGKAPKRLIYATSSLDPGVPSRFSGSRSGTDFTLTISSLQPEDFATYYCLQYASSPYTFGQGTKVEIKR
READING UNIT: %
OBSERVED RESULT: 103
//
BINDER: hz84C4-1.3 (antibody, human IgG4 S228P, kappa, V domains shown, Humanized, human IgG4 / kappa) VH: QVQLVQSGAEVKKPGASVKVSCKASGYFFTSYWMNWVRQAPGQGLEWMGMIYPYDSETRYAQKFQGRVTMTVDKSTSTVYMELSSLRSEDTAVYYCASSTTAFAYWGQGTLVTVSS VL: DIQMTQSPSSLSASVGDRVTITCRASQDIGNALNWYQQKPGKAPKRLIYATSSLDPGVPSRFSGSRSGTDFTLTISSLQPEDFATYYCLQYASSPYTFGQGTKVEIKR
READING UNIT: %
OBSERVED RESULT: 19.4

Maximum inhibition rate %; hIL36β; IL-8 production for hz84C4-2.3 (antibody, human IgG4 S228P, kappa, V domains shown, Humanized, human IgG4 / kappa) VH: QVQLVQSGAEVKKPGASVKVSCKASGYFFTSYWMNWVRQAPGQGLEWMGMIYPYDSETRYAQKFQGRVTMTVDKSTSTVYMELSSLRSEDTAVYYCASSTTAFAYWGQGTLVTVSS VL: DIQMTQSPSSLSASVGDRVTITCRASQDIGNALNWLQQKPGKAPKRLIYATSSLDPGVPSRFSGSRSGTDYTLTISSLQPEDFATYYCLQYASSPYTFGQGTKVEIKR is 23.4

Maximum inhibition rate %; hIL36β; IL-8 production for hz84C4-2.1 (antibody, human IgG4 S228P, kappa, V domains shown, Humanized, human IgG4 / kappa) VH: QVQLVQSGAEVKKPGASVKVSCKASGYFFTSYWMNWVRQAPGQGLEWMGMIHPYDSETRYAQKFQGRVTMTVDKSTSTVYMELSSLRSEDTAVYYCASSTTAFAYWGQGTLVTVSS VL: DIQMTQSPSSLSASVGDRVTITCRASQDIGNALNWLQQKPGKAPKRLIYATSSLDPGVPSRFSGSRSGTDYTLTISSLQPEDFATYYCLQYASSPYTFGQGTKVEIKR is 96.8
